Every entry's value here was drawn from patent US20070049538A1.

Listed here: items and their measured CHIACN1.
- Protocol Summary: Chromatographic hydrophobicity index (CHI) by RP-HPLC in buffered acetonitrile
- Format: physicochemical
- Design: key: CHI = φ0 (isocratic hydrophobicity index), = A·tR + B; ACN % scale
- Condition: buffered acetonitrile pH 7.0, Alltima C18 250 mm, Eq. (2) from isocratic φ0
Give only the figure.

Consider the reported CHIACN1 for these molecules:
Molecule	CHIACN1
CCOC1=CC2C(=CCC3C2(C)C(=O)CC2(C)C(C(C)(O)C(=O)C=CC(C)(C)O)C(O)CC32C)C(C)(C)C1=O (stereo not drawn) [I-Et]	69.99
CC(=O)OC(C)(C)/C=C/C(=O)[C@@](C)(O)[C@H]1[C@H](O)C[C@@]2(C)[C@@H]3CC=C4[C@@H](CC(=O)[C@@H](O)C4(C)C)[C@]3(C)C(=O)C[C@]12C [iso-B, iso-cucurbitacin B]	72.86

Let us move to another entry and its CHIACN1.
## Input Which CHIACN1 is listed for CC(=O)OC(C)(C)/C=C/C(=O)[C@](C)(O)[C@H]1[C@H](O)C[C@@]2(C)[C@@H]3CC=C4[C@H](C[C@H](O)C(=O)C4(C)C)[C@]3(C)C(=O)C[C@]12C [B, cucurbitacin B] ?
## Output 70.93

* * *

- Test system: HSC-T6 cells
- Protocol Summary: Serum-driven HSC-T6 proliferation, experiment 3 (24 h, proliferating cells)
- Type: cell-based, rat
- Condition: HSC-T6, 24 h, proliferating cells; read-out: Experiment 3 EC50 (A)
EC50 under 300 nM gets label 1, anything at or over 300 nM gets label 0.

Examples from the recorded data:
Compound	Class Label
CC(=O)OC(C)(C)C=CC(=O)C(C)(O)C1C(O)CC2(C)C3CC=C4C(C=C(OC(C)C)C(=O)C4(C)C)C3(C)C(=O)CC12C (stereo not drawn) [E-iPr]	label 0
CC(C)(O)/C=C/C(=O)[C@](C)(O)C1[C@H](O)C[C@@]2(C)C3CC=C4C(C=C(O[C@@H]5O[C@H](CO)[C@@H](O)[C@H](O)[C@H]5O)C(=O)C4(C)C)[C@]3(C)C(=O)C[C@]12C (stereo partly drawn) [I-Gluc, cucurbitacin I glucoside]	label 0
COC1=CC2C(=CCC3C2(C)C(=O)CC2(C)C(C(C)(O)C(=O)C=CC(C)(C)O)C(O)CC32C)C(C)(C)C1=O (stereo not drawn) [I-Me]	label 1

## Input Would you kindly verify if EC50 of CCCOC1=CC2C(=CCC3C2(C)C(=O)CC2(C)C(C(C)(O)C(=O)C=CC(C)(C)O)C(O)CC32C)C(C)(C)C1=O (stereo not drawn) [I-nPr] is strictly less than 300 nM?
## Output label 0

## Input Another compound: CC(C)(O)/C=C/C(=O)[C@](C)(O)[C@H]1[C@H](O)C[C@@]2(C)[C@@H]3CC=C4[C@@H](C[C@H](O)C(=O)C4(C)C)[C@]3(C)C(=O)C[C@]12C [D, cucurbitacin D]
## Output label 1

## Input Lookup CC(=O)OC(C)(C)/C=C/C(=O)[C@](C)(O)[C@H]1[C@H](O)C[C@@]2(C)[C@@H]3CC=C4[C@H](C[C@H](O)C(=O)C4(C)C)[C@]3(C)C(=O)C[C@]12C [B, cucurbitacin B]
## Output label 1

* * *

The reader will find reported EC50 values listed item by item below.
- System: HSC-T6 cells
- Protocol Summary: Serum-driven HSC-T6 proliferation, experiment 1 (4 h challenge, two days drug-free growth)
- Format: cell-based, rat
- Condition: HSC-T6, 4 h challenge, then two days drug-free media
Your answer should be a plain number; it is taken to be in nM.

Field: example entries. Status: answers known.
Compound	Endpoint Value
COC1=CC2C(=CCC3C2(C)C(=O)CC2(C)C(C(C)(O)C(=O)CCC(C)(C)O)C(O)CC32C)C(C)(C)C1=O (centres unmarked)	10800
CCOC1=CC2C(=CCC3C2(C)C(=O)CC2(C)C(C(C)(O)C(=O)C=CC(C)(C)OC(C)=O)C(O)CC32C)C(C)(C)C1=O (centres unmarked)	5600
CCCOC1=CC2C(=CCC3C2(C)C(=O)CC2(C)C(C(C)(O)C(=O)C=CC(C)(C)OC(C)=O)C(O)CC32C)C(C)(C)C1=O (centres unmarked)	2280
CC(=O)OC(C)(C)/C=C/C(=O)[C@](C)(O)[C@H]1[C@H](O)C[C@@]2(C)[C@@H]3CC=C4[C@H](C[C@H](O)C(=O)C4(C)C)[C@]3(C)C(=O)C[C@]12C	1180

Kindly consider the entry below.
## Input Data request, read-out EC50, for CC(C)(O)/C=C/C(=O)C(C)(O)C1C(O)CC2(C)C3CC=C4C(CC(=O)C(O)C4(C)C)C3(C)C(=O)CC12C (centres unmarked)
## Output 2130

* * *

Here the recorded CHIACN (b) is given for each entry.
- Protocol Summary: Chromatographic hydrophobicity index (CHI) by RP-HPLC in buffered acetonitrile
- Format: physicochemical
- Set-up: key: CHI = φ0 (isocratic hydrophobicity index), = A·tR + B; ACN % scale
- Condition: standard compounds; isochratic and gradient elution of standard mixture
# answer = number (no unit)

The cases that follow already have their CHIACN (b) on record.
Compound	Endpoint Value
CCCC(=O)c1ccccc1 [Butyrophenone (24), butyrophenone, reference compound]	79.32
CCCCC(=O)c1ccccc1 [Valerophenone (25), valerophenone, reference compound]	86.66
Cn1c(=O)c2[nH]cnc2n(C)c1=O [Theophylline (19), theophylline, reference compound]	32.63
CC(=O)c1ccccc1 [Acetophenone (21), acetophenone, reference compound]	61.93

We now examine a further compound.
## Input # CHIACN (b) lookup, item c1ccc2[nH]cnc2c1 [Benzimidazole (20), benzimidazole, reference compound]
## Output 43.18

* * *

- Protocol Summary: Chromatographic hydrophobicity index (CHI) by RP-HPLC in buffered acetonitrile
- Type: physicochemical
- Set-up: key: CHI = φ0 (isocratic hydrophobicity index), = A·tR + B; ACN % scale
- Condition: buffered acetonitrile pH 7.0, Alltima C18 250 mm, Eq. (2) from isocratic φ0
Measured Attribute: CHIACN1

Examples from the recorded data:
Compound	Endpoint Value
CC(=O)OC(C)(C)/C=C/C(=O)[C@](C)(O)[C@H]1[C@H](O)C[C@@]2(C)[C@@H]3CC=C4[C@@H](C=C(O[C@@H]5O[C@H](CO)[C@@H](O)[C@H](O)[C@H]5O)C(=O)C4(C)C)[C@]3(C)C(=O)C[C@]12C [E-Gluc, cucurbitacin E glucoside]	53.98
CCCOC1=CC2C(=CCC3C2(C)C(=O)CC2(C)C(C(C)(O)C(=O)C=CC(C)(C)O)C(O)CC32C)C(C)(C)C1=O (stereo not drawn)	75.92
CC(C)(O)/C=C/C(=O)[C@](C)(O)[C@H]1[C@H](O)C[C@@]2(C)[C@@H]3CC=C4[C@@H](C[C@H](O)C(=O)C4(C)C)[C@]3(C)C(=O)C[C@]12C	58.31
CC(C)(O)/C=C/C(=O)[C@](C)(O)C1[C@H](O)C[C@@]2(C)C3CC=C4C(C=C(O[C@@H]5O[C@H](CO)[C@@H](O)[C@H](O)[C@H]5O)C(=O)C4(C)C)[C@]3(C)C(=O)C[C@]12C (stereo partly drawn) [I-Gluc, cucurbitacin I glucoside]	46.48
CCOC1=CC2C(=CCC3C2(C)C(=O)CC2(C)C(C(C)(O)C(=O)C=CC(C)(C)OC(C)=O)C(O)CC32C)C(C)(C)C1=O (stereo not drawn)	82.76

## Input So what's the measured CHIACN1 for this one? CCCOC1=CC2C(=CCC3C2(C)C(=O)CC2(C)C(C(C)(O)C(=O)C=CC(C)(C)OC(C)=O)C(O)CC32C)C(C)(C)C1=O (stereo not drawn)
## Output 88.34

## Input Here is the next compound: CC(C)(O)/C=C/C(=O)[C@](C)(O)[C@H]1[C@H](O)C[C@@]2(C)[C@@H]3CC=C4[C@@H](C=C(O)C(=O)C4(C)C)[C@]3(C)C(=O)C[C@]12C
## Output 63.27

## Input Again, but for COC1=CC2C(=CCC3C2(C)C(=O)CC2(C)C(C(C)(O)C(=O)C=CC(C)(C)O)C(O)CC32C)C(C)(C)C1=O (stereo not drawn)
## Output 64.84

## Input Then this compound: COC1=CC2C(=CCC3C2(C)C(=O)CC2(C)C(C(C)(O)C(=O)CCC(C)(C)O)C(O)CC32C)C(C)(C)C1=O (stereo not drawn)
## Output 64.84

## Input Entry CC(=O)OC(C)(C)C=CC(=O)C(C)(O)C1C(O)CC2(C)C3CC=C4C(C=C(OC(C)C)C(=O)C4(C)C)C3(C)C(=O)CC12C (stereo not drawn) please
## Output 86.84

## Input Try this compound next: CC(C)(O)/C=C/C(=O)C(C)(O)C1C(O)CC2(C)C3CC=C4C(CC(=O)C(O)C4(C)C)C3(C)C(=O)CC12C (stereo not drawn)
## Output 60.59

## Input What do you get for CC(C)OC1=CC2C(=CCC3C2(C)C(=O)CC2(C)C(C(C)(O)C(=O)C=CC(C)(C)O)C(O)CC32C)C(C)(C)C1=O (stereo not drawn) ?
## Output 73.87
